Molecular target: T1, rat α-CGRP (Rattus norvegicus, UniProt P01256)
T1 construct: rat α (1-37); host or cells: synthetic peptide
T1 sequence (P01256 83-119 limits assumed): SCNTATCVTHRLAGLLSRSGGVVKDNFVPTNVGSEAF
Experiment: Biacore affinity of antibody G1 Fab and variants to rat α-CGRP
Format: binding
Conditions: 37° C., Fab, screening mode unless underlined
Recorded α-rat koff by entry
The figure you give is taken to be in s⁻¹; do not add the unit.

See these solved cases before continuing.
M76: G1 variant: L1 R28N,T30S; L2 G50A,L56T; H2 A57G; HC-FW3 L99T,A100V (antibody, V domains shown) VH: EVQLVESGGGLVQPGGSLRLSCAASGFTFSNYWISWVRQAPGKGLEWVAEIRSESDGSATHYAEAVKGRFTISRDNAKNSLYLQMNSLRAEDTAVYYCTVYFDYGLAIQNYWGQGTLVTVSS VL: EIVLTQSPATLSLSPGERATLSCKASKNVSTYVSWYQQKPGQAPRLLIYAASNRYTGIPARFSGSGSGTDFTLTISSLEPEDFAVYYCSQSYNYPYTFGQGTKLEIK	0.00116
M40: G1 variant: L1 R28N; L2 G50A,L56T; H2 E54K,A57L; HC-FW3 L99T,A100V (antibody, V domains shown) VH: EVQLVESGGGLVQPGGSLRLSCAASGFTFSNYWISWVRQAPGKGLEWVAEIRSKSDLSATHYAEAVKGRFTISRDNAKNSLYLQMNSLRAEDTAVYYCTVYFDYGLAIQNYWGQGTLVTVSS VL: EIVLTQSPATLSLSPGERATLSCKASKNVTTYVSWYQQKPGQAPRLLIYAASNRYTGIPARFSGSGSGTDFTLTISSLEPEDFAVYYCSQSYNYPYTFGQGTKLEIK	0.36
M54: G1 variant: L1 R28N,T30A; L2 G50A; H2 E54K,A57N,S58P; HC-FW3 L99T,A100V (antibody, V domains shown) VH: EVQLVESGGGLVQPGGSLRLSCAASGFTFSNYWISWVRQAPGKGLEWVAEIRSKSDNPATHYAEAVKGRFTISRDNAKNSLYLQMNSLRAEDTAVYYCTVYFDYGLAIQNYWGQGTLVTVSS VL: EIVLTQSPATLSLSPGERATLSCKASKNVATYVSWYQQKPGQAPRLLIYAASNRYLGIPARFSGSGSGTDFTLTISSLEPEDFAVYYCSQSYNYPYTFGQGTKLEIK	0.00216
M50: G1 variant: L1 R28N; L2 G50A,L56T; H2 E54K,A57R; HC-FW3 L99T,A100V (antibody, V domains shown) VH: EVQLVESGGGLVQPGGSLRLSCAASGFTFSNYWISWVRQAPGKGLEWVAEIRSKSDRSATHYAEAVKGRFTISRDNAKNSLYLQMNSLRAEDTAVYYCTVYFDYGLAIQNYWGQGTLVTVSS VL: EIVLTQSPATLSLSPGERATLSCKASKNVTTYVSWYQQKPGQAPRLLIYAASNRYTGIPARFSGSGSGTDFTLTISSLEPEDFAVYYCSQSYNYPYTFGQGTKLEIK	0.0053

Answer with the recorded α-rat koff for the molecule listed here: M45: G1 variant: L1 R28N; L2 G50A,L56T; H2 E54K,A57N,S58E,E64D; HC-FW3 L99T,A100V (antibody, V domains shown) VH: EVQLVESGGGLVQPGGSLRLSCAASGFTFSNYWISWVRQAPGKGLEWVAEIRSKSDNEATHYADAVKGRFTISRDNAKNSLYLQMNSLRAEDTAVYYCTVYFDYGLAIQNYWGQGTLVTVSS VL: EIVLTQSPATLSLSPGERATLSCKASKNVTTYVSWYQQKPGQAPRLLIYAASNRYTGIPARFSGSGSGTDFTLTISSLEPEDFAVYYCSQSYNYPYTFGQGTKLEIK
0.00558

Values compiled from patent US10766952B2.
